Target: EGFR (Homo sapiens)
Construct: endogenous in cells; host or cells: A431 cells (lysate, captured with SUMO1 anti-EGFR antibody)
Sequence (P00533 25-1210): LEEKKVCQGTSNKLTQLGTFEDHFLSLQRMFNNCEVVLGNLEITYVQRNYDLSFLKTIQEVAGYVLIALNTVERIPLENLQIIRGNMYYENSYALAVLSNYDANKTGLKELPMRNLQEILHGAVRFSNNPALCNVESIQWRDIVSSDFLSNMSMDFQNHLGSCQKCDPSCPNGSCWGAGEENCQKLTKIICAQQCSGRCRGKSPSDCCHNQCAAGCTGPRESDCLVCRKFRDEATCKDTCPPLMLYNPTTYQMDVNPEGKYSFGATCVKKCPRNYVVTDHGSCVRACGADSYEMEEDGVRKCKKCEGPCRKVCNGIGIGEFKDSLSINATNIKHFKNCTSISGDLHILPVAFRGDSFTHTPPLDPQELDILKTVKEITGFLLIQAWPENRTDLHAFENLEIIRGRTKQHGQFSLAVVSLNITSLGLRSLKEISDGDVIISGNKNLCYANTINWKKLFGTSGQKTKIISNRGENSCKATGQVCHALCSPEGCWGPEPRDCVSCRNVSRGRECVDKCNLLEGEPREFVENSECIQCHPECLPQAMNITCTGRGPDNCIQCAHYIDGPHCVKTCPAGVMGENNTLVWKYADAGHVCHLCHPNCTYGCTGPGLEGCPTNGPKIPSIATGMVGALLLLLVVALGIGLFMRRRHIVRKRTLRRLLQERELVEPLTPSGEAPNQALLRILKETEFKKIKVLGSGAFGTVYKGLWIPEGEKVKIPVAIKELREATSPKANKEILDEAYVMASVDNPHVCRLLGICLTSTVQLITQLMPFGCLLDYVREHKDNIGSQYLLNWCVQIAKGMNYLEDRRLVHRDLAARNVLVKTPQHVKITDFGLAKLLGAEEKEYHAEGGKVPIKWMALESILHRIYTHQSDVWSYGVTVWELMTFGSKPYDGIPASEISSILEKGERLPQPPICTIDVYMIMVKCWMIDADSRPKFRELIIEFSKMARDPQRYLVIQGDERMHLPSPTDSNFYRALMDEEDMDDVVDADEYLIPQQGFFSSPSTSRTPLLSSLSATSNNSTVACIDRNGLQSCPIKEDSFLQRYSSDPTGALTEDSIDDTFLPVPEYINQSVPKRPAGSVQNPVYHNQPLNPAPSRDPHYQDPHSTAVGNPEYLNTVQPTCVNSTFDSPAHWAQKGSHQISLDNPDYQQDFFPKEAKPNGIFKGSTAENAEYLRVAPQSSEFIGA
Assay: Biochemical EGFR Assay
Parameters: concentration or dose not given beside the values
Method: This assay measures the in vitro kinase activity of EGFR using ELISA. 1. Corning 96-well Elisa plates (Corning Catalog No. 25805-96). 2. SUMO1 monoclonal anti-EGFR antibody (Biochemistry Lab, SUGEN, Inc.). 3. PBS (Dulbecco's Phosphate-Buffered Saline, Gibco Catalog No. 450-1300EB). 6. […] Mix first two ingredients in about 900 ml dH2O, adjust pH to 4.0 with phosphoric acid. […] The solution should be kept in the dark at 4° C. until ready to use. […] 22. Read assay on Dynatech MR7000 ELISA reader. […]
quantityMeasured: Biochem EGFR % Inhibition (P.167) (%)
Report as a plain number; the unit % is understood.

Lookup: Recorded Biochem EGFR % Inhibition (P.167) for `CC(C)(C)c1ccc(C=C2C(=O)Nc3ccc(I)cc32)cc1` with EGFR (Homo sapiens), please?
Found: 60.7

Lookup: Recorded Biochem EGFR % Inhibition (P.167) for `Cc1c(Br)cc(Br)c2c1C(=Cc1ccccc1[N+](=O)[O-])C(=O)N2` with EGFR (Homo sapiens), please?
Found: −11.2

Lookup: Recorded Biochem EGFR % Inhibition (P.167) for `O=C1Nc2ccc(CCCl)cc2C1=Cc1ccc(Cl)cc1Cl` with EGFR (Homo sapiens), please?
Found: 4.5

Lookup: Recorded Biochem EGFR % Inhibition (P.167) for `N#Cc1ccccc1C=C1C(=O)Nc2ccc(CCCl)cc21` with EGFR (Homo sapiens), please?
Found: 4.6

Lookup: Recorded Biochem EGFR % Inhibition (P.167) for `Cc1c(Br)cc(Br)c2c1C(=Cc1ccc3ccccc3c1O)C(=O)N2` with EGFR (Homo sapiens), please?
Found: 13.7

Lookup: Recorded Biochem EGFR % Inhibition (P.167) for `CNS(=O)(=O)c1ccc2c(c1)C(=Cc1ccc(-c3ccccc3)cc1)C(=O)N2` with EGFR (Homo sapiens), please?
Found: −16.5

Lookup: Recorded Biochem EGFR % Inhibition (P.167) for `Cc1c(Br)cc(Br)c2c1C(=Cc1ccc(O)c([N+](=O)[O-])c1)C(=O)N2` with EGFR (Homo sapiens), please?
Found: 0.3

Lookup: Recorded Biochem EGFR % Inhibition (P.167) for `O=C1Nc2ccc(I)cc2C1=Cc1cccc2ccccc12` with EGFR (Homo sapiens), please?
Found: 39.8

Lookup: Recorded Biochem EGFR % Inhibition (P.167) for `Cc1c(Br)cc(Br)c2c1C(=Cc1cc3c([nH]1)CCCC3)C(=O)N2` with EGFR (Homo sapiens), please?
Found: −12.4

###

target: Met receptor (EGFR/Met chimeric cells, EMR) (Homo sapiens, UniProt P08581); construct: expressed in transfected cells; the other entry of the earlier key: EGFR (P00533, Epidermal growth factor receptor); test: Met Autophosphorylation Assay; format: biochemical
Sequence (P08581 with tags, fused parts or gaps): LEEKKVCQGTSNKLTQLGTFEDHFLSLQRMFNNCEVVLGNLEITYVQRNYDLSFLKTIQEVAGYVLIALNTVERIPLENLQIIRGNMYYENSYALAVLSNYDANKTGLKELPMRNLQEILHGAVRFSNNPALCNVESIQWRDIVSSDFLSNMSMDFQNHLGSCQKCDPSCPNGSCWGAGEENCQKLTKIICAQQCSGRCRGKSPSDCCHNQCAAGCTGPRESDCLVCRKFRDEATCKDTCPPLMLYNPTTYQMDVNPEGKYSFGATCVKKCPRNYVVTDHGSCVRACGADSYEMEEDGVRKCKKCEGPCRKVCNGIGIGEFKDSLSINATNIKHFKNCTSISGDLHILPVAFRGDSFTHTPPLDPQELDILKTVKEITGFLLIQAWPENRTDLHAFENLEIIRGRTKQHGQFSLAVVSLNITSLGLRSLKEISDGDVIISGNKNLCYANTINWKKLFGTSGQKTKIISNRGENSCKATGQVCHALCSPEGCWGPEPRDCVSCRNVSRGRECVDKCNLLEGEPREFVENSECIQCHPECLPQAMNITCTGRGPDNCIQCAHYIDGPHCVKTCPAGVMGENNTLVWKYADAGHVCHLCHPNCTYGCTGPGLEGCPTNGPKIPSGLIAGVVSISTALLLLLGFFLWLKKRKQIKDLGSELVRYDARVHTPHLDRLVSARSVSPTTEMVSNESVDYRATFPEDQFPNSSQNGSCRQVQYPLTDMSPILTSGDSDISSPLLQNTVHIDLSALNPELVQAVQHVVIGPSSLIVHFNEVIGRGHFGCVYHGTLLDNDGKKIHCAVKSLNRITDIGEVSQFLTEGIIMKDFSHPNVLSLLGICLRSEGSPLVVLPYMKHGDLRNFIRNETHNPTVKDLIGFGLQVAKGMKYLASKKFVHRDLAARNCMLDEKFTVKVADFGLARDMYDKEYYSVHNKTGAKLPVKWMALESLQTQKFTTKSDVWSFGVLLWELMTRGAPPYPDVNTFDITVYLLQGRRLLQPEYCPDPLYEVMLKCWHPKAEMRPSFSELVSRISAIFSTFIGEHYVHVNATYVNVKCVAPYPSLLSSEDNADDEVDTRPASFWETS
Would you kindly list Met Kinase % Inhibition (P.130) for each of these molecules?
Report as a plain number; the unit % is understood.

Lookup: Which measured Met Kinase % Inhibition (P.130) value corresponds to Cc1c(Br)ccc2c1C(=Cc1cccc(C(F)(F)F)c1)C(=O)N2 [10735/C05] ?
Found: 59.4

Lookup: Which measured Met Kinase % Inhibition (P.130) value corresponds to O=C1Nc2ccc(S(=O)(=O)N3CCOCC3)cc2C1=Cc1c(F)cccc1F [10735/F08] ?
Found: 18.5

Lookup: Which measured Met Kinase % Inhibition (P.130) value corresponds to Cc1c(Br)cc(Br)c2c1C(=Cc1cc(Br)ccc1O)C(=O)N2 [10733/H09] ?
Found: 51.9

Lookup: Which measured Met Kinase % Inhibition (P.130) value corresponds to Cc1c(Br)cc(Br)c2c1C(=Cc1ccc(Cl)c([N+](=O)[O-])c1)C(=O)N2 [10718/H08] ?
Found: 14.4

Lookup: Which measured Met Kinase % Inhibition (P.130) value corresponds to Cc1c(Br)cc(Br)c2c1C(=Cc1cc3ccccc3nc1Cl)C(=O)N2 [10730/H08] ?
Found: 57.8
